src = patent US20150337013A1

Listed here are compounds together with their documented Sa278 MIC.
- Tested on: Staphylococcus aureus SAU.278, Daptomycin resistant mutant (D10)
- Assay type: cell-based
- condition.set: MHBc with 50 mg/L calcium, 18-20 hours at 37° C.

Study these solved cases before continuing.
{"compound": "CCCCCCCCC(=O)N[C@@H](Cc1c[nH]c2ccccc12)C(=O)N[C@H](CC(N)=O)C(=O)N[C@@H](CC(=O)O)C(=O)N[C@@H]1C(=O)NCC(=O)N[C@@H](CCCN)C(=O)N[C@@H](CC(=O)O)C(=O)N[C@H](C)C(=O)N[C@@H](CC(=O)O)C(=O)NCC(=O)N[C@H](CO)C(=O)N[C@@H]([C@H](C)CC(=O)O)C(=O)N[C@@H](CC(=O)c2ccccc2N)C(=O)O[C@@H]1C", "target.system": "Staphylococcus aureus SAU.278, Daptomycin resistant mutant (D10)", "value": ">32 µg/mL"}
{"compound": "CCCCCCCCCC(=O)N[C@@H](Cc1c[nH]c2ccccc12)C(=O)N[C@H](CC(N)=O)C(=O)N[C@@H](CC(=O)O)C(=O)N[C@@H]1C(=O)NCC(=O)N[C@@H](CCCN)C(=O)N[C@@H](CC(=O)O)C(=O)N[C@H](C)C(=O)N[C@@H](CC(=O)O)C(=O)NCC(=O)N[C@H](CO)C(=O)N[C@@H]([C@H](C)CC(=O)O)C(=O)N[C@@H](CC(=O)c2ccccc2N)C(=O)O[C@@H]1C [Daptomycin, reference compound]", "target.system": "Staphylococcus aureus SAU.278, Daptomycin resistant mutant (D10)", "value": "8 µg/mL"}
{"compound": "CCCCCCCCOc1ccc(-c2ccc(C(=O)N[C@@H](Cc3c[nH]c4ccccc34)C(=O)N[C@H](CC(N)=O)C(=O)N[C@@H](CC(=O)O)C(=O)N[C@@H]3C(=O)NCC(=O)N[C@@H](CCCN)C(=O)N[C@@H](CC(=O)O)C(=O)N[C@H](C)C(=O)N[C@@H](CC(=O)O)C(=O)NCC(=O)N[C@H](CO)C(=O)N[C@@H]([C@H](C)CC(=O)O)C(=O)N[C@@H](CC(=O)c4ccccc4N)C(=O)O[C@@H]3C)cc2)cc1", "target.system": "Staphylococcus aureus SAU.278, Daptomycin resistant mutant (D10)", "value": "0.5 µg/mL"}
{"compound": "C[C@H](CC(=O)O)[C@@H]1NC(=O)[C@@H](CO)NC(=O)CNC(=O)[C@H](CC(=O)O)NC(=O)[C@@H](C)NC(=O)[C@H](CC(=O)O)NC(=O)[C@H](CCCN)NC(=O)CNC(=O)[C@@H](NC(=O)[C@H](CC(=O)O)NC(=O)[C@@H](CC(N)=O)NC(=O)[C@H](Cc2c[nH]c3ccccc23)NC(=O)C2(c3ccc(Cl)cc3)CCCCC2)[C@@H](C)OC(=O)[C@H](CC(=O)c2ccccc2N)NC1=O", "target.system": "Staphylococcus aureus SAU.278, Daptomycin resistant mutant (D10)", "value": ">32 µg/mL"}

Now consider a different compound.
Record C[C@H](CC(=O)O)[C@@H]1NC(=O)[C@@H](CO)NC(=O)CNC(=O)[C@H](CC(=O)O)NC(=O)[C@@H](C)NC(=O)[C@H](CC(=O)O)NC(=O)[C@H](CCCN)NC(=O)CNC(=O)[C@@H](NC(=O)[C@H](CC(=O)O)NC(=O)[C@@H](CC(N)=O)NC(=O)[C@H](Cc2c[nH]c3ccccc23)NC(=O)c2ccc(-c3ccc(Cl)cc3)cc2)[C@@H](C)OC(=O)[C@H](CC(=O)c2ccccc2N)NC1=O has Staphylococcus aureus SAU.278, Daptomycin resistant mutant (D10) Sa278 MIC equal to 32 µg/mL
